Listed here are binders together with their documented Kd.
- system.under.test: T1, human KLRB1 protein extracellular domain (ECD) (human, UniProt Q12918 67-225)
- T1 construct: range 67-225; The ELISA and SPR text says only 'human KLRB1 ECD'; also called human KLRB1 ECD; CD161
- T1 sequence (looked up): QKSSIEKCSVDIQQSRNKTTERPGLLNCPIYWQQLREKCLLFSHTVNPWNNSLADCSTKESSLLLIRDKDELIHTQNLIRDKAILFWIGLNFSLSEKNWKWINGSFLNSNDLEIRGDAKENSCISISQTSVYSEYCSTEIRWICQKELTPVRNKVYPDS
- assay.method.text: SPR, human KLRB1 ECD; format not stated
Numbers only here, please. The scale is nM.

Check out these entries, answers already filled in.
* 10A3D6C109Chum1.2 (antibody, V domains shown, Humanized variant of 10A3D6 made by CDR grafting) VH: QVQLVQSGAEVKKPGASVKVSCKASGYSFTGYTMNWVRQAPGQGLEWMGLINPNTGGTYYNQKFKDRVTMTRDTSISTAYMELSRLRSDDTAVYYCARLGDNYRGYFDCWGQGTTVTVSS VL: DIQLTQSPSFLSASVGDRVTITCKASQDVGTAVVWYQQKPGKAPKLLIDWASIRHTGVPSRFSGSGSGTEFTLTISSLQPEDFADYFCQQYSTYLYTFGGGTKLEIK | 0.0932
* 10A3D6C109Chum1.3 (antibody, V domains shown, Humanized variant of 10A3D6 made by CDR grafting) VH: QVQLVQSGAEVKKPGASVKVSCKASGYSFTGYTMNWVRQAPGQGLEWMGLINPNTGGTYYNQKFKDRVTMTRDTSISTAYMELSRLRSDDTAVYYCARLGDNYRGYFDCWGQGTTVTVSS VL: DIQLTQSPSFLSASVGDRVTITCKASQDVGTAVVWYQQTPGKAPKLLIDWASIRHTGVPSRFSGSGSGTEFTLTISSLQPEDFADYFCQQYSTYLYTFGGGTKLEIK | 0.1

Return the recorded Kd value; entry: 10A3D6C109Chum1.1 (antibody, V domains shown, Humanized variant of 10A3D6 made by CDR grafting) VH: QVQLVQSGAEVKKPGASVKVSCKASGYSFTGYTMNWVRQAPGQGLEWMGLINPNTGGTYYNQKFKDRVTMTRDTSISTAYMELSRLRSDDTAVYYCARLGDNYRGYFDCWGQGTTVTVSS VL: DIQLTQSPSFLSASVGDRVTITCKASQDVGTAVVWYQQKPGKAPKLLIYWASIRHTGVPSRFSGSGSGTEFTLTISSLQPEDFATYYCQQYSTYLYTFGGGTKLEIK
9.42

Attribution: patent US20250270328A1
